- Test system: Mus musculus
- procedure.details: Antidyslipidemic activity in C57BL/Ks db/db mouse assessed as plasma HDL-cholesterol level at 100 mg/kg, po
- Format: functional
quantity: Activity (%)
Respond numerically; units are % and should not be typed.

Take a look at these entries with their results.
- compound: "CCN(CC)CCOc1cc(OC)ccc1-c1cc(-c2ccccc2)no1"
  Activity (%): 3.9
- compound: "COc1ccc(-c2cc(-c3ccccc3)no2)c(OCC(O)CN2CCCC2)c1 (centres undefined)"
  Activity (%): 1.8
- compound: "COc1ccc(-c2cc(-c3ccccc3)no2)c(OCCN2CCCC2)c1"
  Activity (%): 3

# context switch: different compound, same Activity
Incoming: Reported Activity for COc1ccc(-c2cc(-c3ccccc3)no2)c(OCCN2CCCCC2)c1 : what is it?
Outgoing: 1.3
